# TESTED_ON: human ether-à-go-go-related gene (hERG) potassium channel (human, UniProt Q12809)
# Sequence (Q12809 whole entry, looked up): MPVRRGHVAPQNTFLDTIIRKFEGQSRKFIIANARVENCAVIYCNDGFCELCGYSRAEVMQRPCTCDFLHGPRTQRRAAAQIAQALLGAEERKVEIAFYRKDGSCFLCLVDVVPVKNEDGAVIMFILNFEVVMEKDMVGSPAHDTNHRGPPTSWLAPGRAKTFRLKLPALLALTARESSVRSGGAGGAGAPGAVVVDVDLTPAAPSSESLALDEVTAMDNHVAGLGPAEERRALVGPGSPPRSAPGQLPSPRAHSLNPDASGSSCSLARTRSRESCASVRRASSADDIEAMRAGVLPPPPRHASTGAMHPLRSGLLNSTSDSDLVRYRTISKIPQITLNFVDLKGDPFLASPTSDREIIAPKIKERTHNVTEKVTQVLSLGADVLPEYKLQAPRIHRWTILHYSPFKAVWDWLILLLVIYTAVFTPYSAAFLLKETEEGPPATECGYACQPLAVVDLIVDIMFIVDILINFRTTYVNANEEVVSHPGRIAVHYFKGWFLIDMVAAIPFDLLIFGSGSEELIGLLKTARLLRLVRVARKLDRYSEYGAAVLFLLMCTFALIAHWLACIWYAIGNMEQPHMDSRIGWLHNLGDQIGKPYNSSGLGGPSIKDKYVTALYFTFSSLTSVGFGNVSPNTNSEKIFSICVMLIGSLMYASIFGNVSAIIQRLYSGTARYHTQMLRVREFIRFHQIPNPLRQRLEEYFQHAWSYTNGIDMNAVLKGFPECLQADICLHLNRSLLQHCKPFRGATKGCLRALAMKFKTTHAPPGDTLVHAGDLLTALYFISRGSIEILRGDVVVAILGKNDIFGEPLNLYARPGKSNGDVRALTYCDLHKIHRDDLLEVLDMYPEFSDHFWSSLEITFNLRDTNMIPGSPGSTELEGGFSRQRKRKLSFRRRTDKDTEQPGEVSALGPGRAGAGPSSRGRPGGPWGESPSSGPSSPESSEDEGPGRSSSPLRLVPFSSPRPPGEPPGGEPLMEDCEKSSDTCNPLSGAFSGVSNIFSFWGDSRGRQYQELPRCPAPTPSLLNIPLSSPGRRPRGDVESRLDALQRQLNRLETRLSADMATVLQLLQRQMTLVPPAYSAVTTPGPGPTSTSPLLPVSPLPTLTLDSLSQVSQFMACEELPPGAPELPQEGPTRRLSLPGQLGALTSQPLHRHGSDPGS
# TEST_DESCRIPTION: primary screen, population patch clamp on CHO cells stably expressing hERG; higher = less effect of the substance;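 note: peak tail current of the secondary pulse compared with the same well before compound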
The campaign covered roughly 310,000 compounds. About 14,000 (4.5%) showed an effect of 50% or more. Effects have a minus sign here. What follows is part of a selection rich in strong results, with near analogues and random picks from the rest.
PARAMETER: hERG current change (%, negative = inhibition) at 10uM (%)
Numbers only here, please. The scale is %.

Just so you know, measured hERG current change (%, negative = inhibition) at 10uM for CCc1ccc(CN(C)C(=O)CC2C(=O)NCCN2Cc2ccoc2)cc1 (centres unmarked) came out at 4.18

Just so you know, measured hERG current change (%, negative = inhibition) at 10uM for O=C1/C(=C2\C(=O)N(Cc3ccc(F)cc3)c3ccccc32)SC(=S)N1CCS(=O)(=O)O came out at 4.31

Just so you know, measured hERG current change (%, negative = inhibition) at 10uM for CC1=C(C(=O)N(C)C)C(c2ccccc2OC(F)F)NC(=O)N1 (centres unmarked) came out at 3.49

Just so you know, measured hERG current change (%, negative = inhibition) at 10uM for Cn1c(=O)c2c(n(Cc3ccccc3)c1=O)NC(=O)C2CC(=O)O (centres unmarked) came out at 12.6

Next:
Just so you know, measured hERG current change (%, negative = inhibition) at 10uM for C/C(=N/NC(=O)CNC(=O)C1COc2ccccc2O1)c1ccc([N+](=O)[O-])cc1 (centres unmarked) came out at -64.7
